- Test system: Staph. haemolyticus rifa-r^(2)
- ASSAY INFO: MIC by broth microdilution
- Assay type: cell-based
- EXPERIMENTAL SETUP: Staphylococcus haemolyticus, read-out: MIC of the compounds
Criterion: MIC strictly under 4 µg/mL. Met: YES. Not met: NO.

Given the entry CCn1cc(C(=O)OCC(=O)O[C@H]2[C@H](C)[C@H](O)[C@H](C)[C@@H](O)[C@@H](C)/C=C/C=C(/C)C(=O)Nc3c(C=NN4CCN(C)CC4)c(O)c4c5c(c(C)c(O)c4c3O)O[C@](C)(O/C=C/[C@H](OC)[C@H]2C)C5=O)c(=O)c2cc(F)c(N3CCN(C)CC3)cc21 , would its reported MIC be below 4 µg/mL?
YES

Item CO[C@H]1/C=C/O[C@@]2(C)Oc3c(C)c(O)c4c(c3C2=O)C(=O)C=C(NC(=O)/C(C)=C\C=C\[C@H](C)[C@H](O)[C@@H](C)[C@@H](O)[C@@H](C)[C@H](OC(=O)CCl)[C@@H]1C)C4=O : MIC beneath 4 µg/mL, strictly?
NO

Find out if reported MIC for CO[C@H]1/C=C/O[C@@]2(C)Oc3c(C)c(O)c4c(c3C2=O)C(=O)C=C(NC(=O)/C(C)=C\C=C\[C@H](C)[C@H](O)[C@@H](C)[C@@H](O)[C@@H](C)[C@H](OC(=O)COC(C)=O)[C@@H]1C)C4=O is less than 4 µg/mL
NO

Below 4 µg/mL on MIC? Entry CCn1cc(C(=O)OCC(=O)O[C@H]2[C@H](C)[C@H](O)[C@H](C)[C@@H](O)[C@@H](C)/C=C/C=C(/C)C(=O)NC3=C(N4CCOCC4)C(=O)c4c(c(O)c(C)c5c4C(=O)[C@@](C)(O/C=C/[C@H](OC)[C@H]2C)O5)C3=O)c(=O)c2cc(F)c(N3CCN(C)CC3)cc21
YES

Please let me know if CCN(CC)CC(=O)O[C@H]1[C@H](C)[C@H](O)[C@H](C)[C@@H](O)[C@@H](C)/C=C/C=C(/C)C(=O)NC2=CC(=O)c3c(c(O)c(C)c4c3C(=O)[C@@](C)(O/C=C/[C@H](OC)[C@H]1C)O4)C2=O shows MIC below 4 µg/mL.
NO

In the record for CO[C@H]1/C=C/O[C@@]2(C)Oc3c(C)c(O)c4c(c3C2=O)C(=O)C=C(NC(=O)/C(C)=C\C=C\[C@H](C)[C@H](O)[C@@H](C)[C@@H](O)[C@@H](C)[C@H](OC(=O)CI)[C@@H]1C)C4=O , is MIC less than 4 µg/mL?
NO

Report whether reported MIC is lower than 4 µg/mL (strictly) for CO[C@H]1/C=C/O[C@@]2(C)Oc3c(C)c(O)c4c(O)c(c(C=NN5CCN(C)CC5)c(O)c4c3C2=O)NC(=O)/C(C)=C\C=C\[C@H](C)[C@H](O)[C@@H](C)[C@@H](O)[C@@H](C)[C@H](OC(=O)COC(=O)c2cn(C3CC3)c3cc(-c4cc(C)nc(C)c4)c(F)cc3c2=O)[C@@H]1C
NO
